# studySystem: BRM (Homo sapiens, UniProt P51531)
# Construct: made in house; host or cells: High Five insect cells
# Sequence (P51531 whole entry): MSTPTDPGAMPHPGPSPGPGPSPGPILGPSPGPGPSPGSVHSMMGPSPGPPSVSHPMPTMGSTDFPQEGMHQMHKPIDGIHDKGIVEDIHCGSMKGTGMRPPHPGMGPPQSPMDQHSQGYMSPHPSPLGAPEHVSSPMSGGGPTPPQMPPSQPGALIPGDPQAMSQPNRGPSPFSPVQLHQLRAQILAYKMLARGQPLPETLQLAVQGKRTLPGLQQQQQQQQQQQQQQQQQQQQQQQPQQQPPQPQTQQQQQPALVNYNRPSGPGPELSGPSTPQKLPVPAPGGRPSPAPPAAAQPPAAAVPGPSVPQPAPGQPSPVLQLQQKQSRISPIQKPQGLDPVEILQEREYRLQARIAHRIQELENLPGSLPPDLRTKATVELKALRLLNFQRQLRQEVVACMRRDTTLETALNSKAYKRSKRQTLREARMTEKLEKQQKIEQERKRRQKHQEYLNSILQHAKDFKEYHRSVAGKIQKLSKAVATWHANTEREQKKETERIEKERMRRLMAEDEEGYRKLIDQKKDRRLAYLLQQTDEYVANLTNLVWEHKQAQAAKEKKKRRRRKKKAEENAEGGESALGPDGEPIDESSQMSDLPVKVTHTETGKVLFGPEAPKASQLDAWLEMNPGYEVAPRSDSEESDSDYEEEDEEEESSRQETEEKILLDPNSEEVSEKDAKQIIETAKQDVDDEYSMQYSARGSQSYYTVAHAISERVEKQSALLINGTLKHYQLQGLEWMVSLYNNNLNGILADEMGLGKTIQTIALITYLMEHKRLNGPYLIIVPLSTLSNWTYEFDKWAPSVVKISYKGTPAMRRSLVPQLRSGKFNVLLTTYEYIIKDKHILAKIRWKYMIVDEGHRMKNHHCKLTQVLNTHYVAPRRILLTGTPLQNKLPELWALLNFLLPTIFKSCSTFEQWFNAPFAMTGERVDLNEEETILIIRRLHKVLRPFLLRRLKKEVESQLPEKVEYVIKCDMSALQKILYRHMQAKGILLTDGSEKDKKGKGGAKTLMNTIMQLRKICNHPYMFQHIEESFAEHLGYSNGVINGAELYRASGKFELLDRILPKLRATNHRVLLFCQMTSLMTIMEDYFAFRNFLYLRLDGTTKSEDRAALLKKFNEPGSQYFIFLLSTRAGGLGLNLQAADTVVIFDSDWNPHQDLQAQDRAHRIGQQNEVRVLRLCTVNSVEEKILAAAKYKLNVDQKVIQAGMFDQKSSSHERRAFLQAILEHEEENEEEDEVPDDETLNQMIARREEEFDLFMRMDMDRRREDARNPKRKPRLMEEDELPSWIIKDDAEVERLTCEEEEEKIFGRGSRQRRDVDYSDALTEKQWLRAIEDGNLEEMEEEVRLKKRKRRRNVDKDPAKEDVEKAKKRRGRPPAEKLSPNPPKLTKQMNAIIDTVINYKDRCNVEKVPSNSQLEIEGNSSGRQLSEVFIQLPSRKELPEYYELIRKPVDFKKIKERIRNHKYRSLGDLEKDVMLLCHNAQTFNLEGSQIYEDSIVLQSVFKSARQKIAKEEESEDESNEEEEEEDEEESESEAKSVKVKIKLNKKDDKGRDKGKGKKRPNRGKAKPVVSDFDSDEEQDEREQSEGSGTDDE
# methodSummary: ATPase catalytic activity of BRM, ADP-Glo in vitro biochemical assay
# runConditions: ATPase catalytic activity, ADP-Glo; 30 nM BRM, 400 μM ATP
valueKind: IC50

{"compound": "CCN(CC1COC1)c1cccc(-c2ccc3cnc(CNC(=O)c4ccc5c(c4)S(=O)(=O)CCOC5)cc3n2)n1", "result": "14.6 nM"}
{"compound": "O=C(NCc1cc2nc(N3CCCc4ccc(C5CC5)nc43)ccc2cn1)c1ccc2c(c1)S(=O)(=O)CCOC2", "result": "10.4 nM"}
{"compound": "COc1nc(C(F)F)ccc1-c1ccc2cnc(CNC(=O)c3ccc4c(c3)S(=O)(=O)CCOC4)cc2n1", "result": "8.6 nM"}
{"compound": "COC[C@H]1CCCN(c2cccc(-c3ccc4cnc(CNC(=O)c5ccc6c(c5)S(=O)(=O)CCOC6)cc4n3)n2)C1", "result": "27.4 nM"}
{"compound": "COC[C@H]1C[C@H]1c1cccc(-c2ccc3cnc(CNC(=O)c4ccc5c(c4)S(=O)(=O)CCOC5)cc3n2)n1", "result": "368 nM"}
{"compound": "Cc1ccc2c(n1)N(c1ccc3cnc(CNC(=O)c4ccc5c(c4)S(=O)(=O)[C@@H](C)COC5)cc3c1)CCO2", "result": "32.7 nM"}
{"compound": "CN1CCC2(c3cccc(-c4ccc5cnc(CNC(=O)c6ccc7c(c6)S(=O)(=O)CCOC7)cc5n4)n3)CC2C1 (centres unmarked)", "result": "275 nM"}
{"compound": "O=C(NCc1cc2nc(N3CCCc4ccc(COC5CC5)nc43)ccc2cn1)c1ccc2c(c1)S(=O)(=O)CCOC2", "result": "29.3 nM"}
{"compound": "C[C@@H]1CN(c2cccc(-c3ccc4cnc(CNC(=O)c5cc(Cl)c6c(c5)S(=O)(=O)CCO[C@@H]6C)cc4n3)n2)C[C@H](C)O1", "result": "20.4 nM"}
{"compound": "O=C(NCc1cc2nc(N3CCCc4c(F)ccnc43)ccc2cn1)c1ccc2c(c1)S(=O)(=O)CCOC2", "result": "22.1 nM"}
{"compound": "CC(F)(F)c1ccc2c(c1)N(c1ccc3cnc(CNC(=O)c4ccc5c(c4)S(=O)(=O)CCOC5)cc3n1)CCO2", "result": "10.3 nM"}
{"compound": "O=C(NCc1cc2nc(-c3cccc(OCC4CC4)n3)ccc2cn1)c1ccc2c(c1)S(=O)(=O)CCOC2", "result": "19.4 nM"}
{"compound": "COCc1nc2c(cc1C)CCCN2c1ccc2cnc(CNC(=O)c3ccc4c(c3)S(=O)(=O)CCOC4)cc2n1", "result": "20 nM"}
{"compound": "CCOc1nc(-c2ccc3cnc(CNC(=O)c4ccc5c(c4)S(=O)(=O)[C@@H](C)COC5)cc3n2)ccc1F", "result": "25.9 nM"}
